Source: PubChem BioAssay AID431

# experimental details: viability loss of HPDE-C7K cells – cell-based, fluorescence, HTS, primary screen (AID 431);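 further: 0% = DMSO solvent wells and 100% = doxorubicin-treated wells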
# experimental setup: HPDE-C7K KRASV12 cells, Alamar Blue viability, 48 h; at 10 µM
Hit rate of the full screen: of about 63,000 compounds, about 1,100 (1.7%) were called active.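 How the source made its calls: active means compounds whose percent cytotoxicity in the single-dose primary screen, scaled between solvent and toxic-drug controls, exceeds 50; inactive means the rest.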 The sample as a whole holds a higher share of actives than the screen did. Results with a measured potency or affinity are listed apart.
Give your call using only these classes: Yes (active), No (inactive)

stdin: GET /call?item= COc1ccc2[nH]c(=O)c(C(c3nnnn3C(C)(C)C)N(Cc3ccco3)CC3CCCO3)cc2c1 (stereo not given) returns the recorded outcome of this test.
stdout: No

stdin: GET /call?item= CC(C)(CSc1nncn1N)NS(=O)(=O)c1ccc(Cl)cc1 returns the recorded outcome of this test.
stdout: No

stdin: GET /call?item= Cc1ccc(-n2nnc3c(SCC(=O)NCc4ccco4)ncnc32)cc1 returns the recorded outcome of this test.
stdout: No

stdin: GET /call?item= CCCC(c1nnnn1C(C)(C)CC)N(Cc1ccco1)Cc1cc2ccc(OC)cc2[nH]c1=O (stereo not given) returns the recorded outcome of this test.
stdout: Yes

stdin: GET /call?item= O=C(Nc1ccccc1)c1ccc(S(=O)(=O)NCc2ccco2)cc1 returns the recorded outcome of this test.
stdout: No

---

Field: cytotoxicity. Provide a value for each of the compounds that follow.
# experimental details: viability loss of HPDE-C7K cells – cell-based, fluorescence, HTS, primary screen (AID 431);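 further: 0% = DMSO solvent wells and 100% = doxorubicin-treated wells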
# experimental setup: HPDE-C7K KRASV12 cells, Alamar Blue viability, 48 h; at 10 µM; hits give high values
Hit rate of the full screen: of about 63,000 compounds, about 1,100 (1.7%) were called active. This is one part of a sample in which actives are shown more often than they occur. Results with a measured potency or affinity are listed apart.
Please state the figure in %; there is no need to write the unit.

stdin: Give the reported cytotoxicity for this compound. Cc1occc1-c1nc(-c2ccncc2)no1
stdout: -13.6

stdin: Give the reported cytotoxicity for this compound. COc1ccc(NC(=O)C2CCN(S(=O)(=O)c3ccc(C)cc3)CC2)cc1OC
stdout: -26.5

stdin: Give the reported cytotoxicity for this compound. COc1ccc(N2CSC3=C(C#N)C(c4ccc(OC)c(OC)c4)CC(=O)N3C2)c(OC)c1 (stereo unspecified)
stdout: -12

stdin: Give the reported cytotoxicity for this compound. Cc1cc(Nc2ccccc2C(=O)O)nc2nc3ccccc3c(=O)n12
stdout: -5.3

stdin: Give the reported cytotoxicity for this compound. Cc1ccc(-c2cc(C(=O)N3CCOCC3)c3ccccc3n2)cc1
stdout: 1.8

stdin: Give the reported cytotoxicity for this compound. O=C(c1cc(-c2ccccc2)nc2ccccc12)N1CCN(c2ccccn2)CC1
stdout: 27.1

---

# experimental details: viability loss of HPDE-C7K cells – cell-based, fluorescence, HTS, primary screen (AID 431);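 further: 0% = DMSO solvent wells and 100% = doxorubicin-treated wells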
# experimental setup: HPDE-C7K KRASV12 cells, Alamar Blue viability, 48 h; at 10 µM
About 1,100 (1.7%) of roughly 63,000 compounds were called active.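 Rule for the calls: active = compounds whose percent cytotoxicity in the single-dose primary screen, scaled between solvent and toxic-drug controls, exceeds 50; inactive = the rest.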 What follows is part of a selection rich in actives, with near analogues and random picks from the rest. Entries with a potency or affinity are not part of this list.
Give your call using only these classes: active, inactive

stdin: GET /call?item= O=C(c1ccccc1)c1coc2ccc(O)c(Cl)c12 returns the recorded outcome of this test.
stdout: inactive

stdin: GET /call?item= COC(=O)Cn1cnc2c(C#N)c3n(c2c1=O)CCCCC3 returns the recorded outcome of this test.
stdout: inactive

stdin: GET /call?item= CCOc1cc(CNc2ncnc3nc[nH]c23)ccc1OC returns the recorded outcome of this test.
stdout: inactive

stdin: GET /call?item= Cn1c(=O)oc2cc(S(=O)(=O)NC3CCCc4ccccc43)ccc21 (configuration not stated) returns the recorded outcome of this test.
stdout: inactive

stdin: GET /call?item= CCn1c2ccccc2c2cc(C3C(C#N)=C(C)NC(C)=C3C#N)ccc21 returns the recorded outcome of this test.
stdout: inactive

stdin: GET /call?item= OC(CN1CCOCC1)CN(c1ccccc1)c1ccccc1 (configuration not stated) returns the recorded outcome of this test.
stdout: inactive

stdin: GET /call?item= CCc1ccc(-n2c(O)cnc2Nc2nc(C)cc(C)n2)cc1 returns the recorded outcome of this test.
stdout: inactive

stdin: GET /call?item= c1ccc2c3c([nH]c2c1)-c1[nH]ncc1CC3 returns the recorded outcome of this test.
stdout: active

stdin: GET /call?item= CCc1ccc(-c2cn3nc(C)c(C)nc3n2)cc1 returns the recorded outcome of this test.
stdout: inactive

stdin: GET /call?item= O/N=C1/CCCCc2sccc21 returns the recorded outcome of this test.
stdout: inactive

stdin: GET /call?item= CCOC(=O)CN1C(=O)C(O)(CC(=O)c2ccco2)c2ccccc21 (configuration not stated) returns the recorded outcome of this test.
stdout: inactive

stdin: GET /call?item= Cc1cc(C)c2[nH]c(=O)c(C(c3nnnn3Cc3ccc4c(c3)OCO4)N3CCC(C)CC3)cc2c1 (configuration not stated) returns the recorded outcome of this test.
stdout: inactive

stdin: GET /call?item= COc1ccc2c(c1OC)C(=O)N1c3ccccc3C(=O)N(c3ccccc3)C21 (configuration not stated) returns the recorded outcome of this test.
stdout: inactive

stdin: GET /call?item= CCc1ccc(-c2cn(-c3nc(C)cc(C)n3)c(=N)o2)cc1 returns the recorded outcome of this test.
stdout: active

stdin: GET /call?item= O=c1c(-c2ccccc2)coc2c(CN3CCCC3)c(O)ccc12 returns the recorded outcome of this test.
stdout: inactive

stdin: GET /call?item= COc1ccccc1NC(=O)N(CCN(C)C)Cc1cc2cc(C)ccc2[nH]c1=O returns the recorded outcome of this test.
stdout: inactive

stdin: GET /call?item= O=S1(=O)C=C(Sc2nnc(-c3ccccc3)o2)c2ccccc21 returns the recorded outcome of this test.
stdout: inactive

stdin: GET /call?item= COc1ccc(C(=O)c2coc3ccc(O)c(CN4CCCCC4)c23)cc1 returns the recorded outcome of this test.
stdout: inactive

stdin: GET /call?item= Cc1cc(C)nc(SC2=CS(=O)(=O)c3ccccc32)n1 returns the recorded outcome of this test.
stdout: inactive

stdin: GET /call?item= FC(F)(F)c1ccccc1Nc1nccs1 returns the recorded outcome of this test.
stdout: inactive

stdin: GET /call?item= COc1ccc(NC(=O)Cn2nnc(-c3ccccc3NC(=O)c3cccs3)n2)cc1 returns the recorded outcome of this test.
stdout: inactive

stdin: GET /call?item= Cc1cccc(-n2c(C)nc3c(cnn3-c3ccc(F)cc3)c2=O)c1 returns the recorded outcome of this test.
stdout: inactive

stdin: GET /call?item= Nc1c(C(=O)OCC2CCCO2)c2nc3ccccc3nc2n1C1CCCCC1 (configuration not stated) returns the recorded outcome of this test.
stdout: inactive

stdin: GET /call?item= CCCCC(=O)Nc1cccc2c1C(=O)N(c1ccccc1)C2=O returns the recorded outcome of this test.
stdout: inactive

stdin: GET /call?item= C/C=C/COC(=O)c1[nH]c2c(c1C)C(=O)CC(c1ccco1)C2 (configuration not stated) returns the recorded outcome of this test.
stdout: active

stdin: GET /call?item= COc1ccccc1C(c1nnnn1Cc1ccccc1)N1CCN(c2nc3ccccc3s2)CC1 (configuration not stated) returns the recorded outcome of this test.
stdout: inactive

stdin: GET /call?item= CCSc1nnc(NC(=O)c2cccs2)s1 returns the recorded outcome of this test.
stdout: inactive

stdin: GET /call?item= CCOC(=O)c1ccc(NC(=O)CSc2nnc(-c3cccs3)n2CC)cc1 returns the recorded outcome of this test.
stdout: inactive

stdin: GET /call?item= CCn1c2ccccc2c2cc(C3C(C#N)=C(N)OC4=C3C(=O)CC(C)(C)C4)ccc21 (configuration not stated) returns the recorded outcome of this test.
stdout: inactive

stdin: GET /call?item= CCC(=O)N/C=C/n1cnc2cc(C(F)(F)F)ccc21 returns the recorded outcome of this test.
stdout: inactive

stdin: GET /call?item= CCCNC(=O)Cc1ncn[nH]1 returns the recorded outcome of this test.
stdout: inactive

stdin: GET /call?item= CCOC(=O)N1CCC(NC(=O)C2CCC(CNS(=O)(=O)c3ccc(OC)cc3)CC2)CC1 (configuration not stated) returns the recorded outcome of this test.
stdout: inactive

stdin: GET /call?item= COc1ccc2c(c1OC)C(=O)N1c3ccccc3C(=O)N(c3ccccc3F)C21 (configuration not stated) returns the recorded outcome of this test.
stdout: active

stdin: GET /call?item= O=C(Nc1ccccc1Cl)c1cnccn1 returns the recorded outcome of this test.
stdout: inactive

stdin: GET /call?item= Cn1c(Sc2nc3ccccc3n2C)nc2ccccc21 returns the recorded outcome of this test.
stdout: inactive

stdin: GET /call?item= O=C(OCC(=O)N1CCN(C(=O)c2ccco2)CC1)c1cc(=O)c2ccccc2o1 returns the recorded outcome of this test.
stdout: inactive

stdin: GET /call?item= CC1(C)CNC(=O)c2sc(NC(=O)CN3CCOCC3)nc2C1 returns the recorded outcome of this test.
stdout: inactive

stdin: GET /call?item= CCOC(=O)c1[nH]nc(C(=O)c2ccc(Br)cc2)c1O returns the recorded outcome of this test.
stdout: inactive

stdin: GET /call?item= Cc1ccc(C(=O)c2coc3ccc(O)c(CN4CCN(C)CC4)c23)cc1 returns the recorded outcome of this test.
stdout: inactive

stdin: GET /call?item= N#Cc1c(/N=C/c2ccco2)sc2c1CCC2 returns the recorded outcome of this test.
stdout: inactive

stdin: GET /call?item= CCn1c(SCC(=O)c2ccc(Cl)cc2)nnc1-c1ccoc1C returns the recorded outcome of this test.
stdout: inactive

stdin: GET /call?item= O=S1(=O)C=C(SCCN2CCCCC2)c2ccccc21 returns the recorded outcome of this test.
stdout: inactive

stdin: GET /call?item= Cc1cc(C(=O)Nc2sc3c(c2C#N)CCC3)no1 returns the recorded outcome of this test.
stdout: inactive

stdin: GET /call?item= O=S1(=O)C=C(Sc2nc3ccccc3s2)c2ccccc21 returns the recorded outcome of this test.
stdout: active

stdin: GET /call?item= Cc1cccc(OCC(=O)OCC(=O)c2c(N)n(C)c(=O)n(C)c2=O)c1 returns the recorded outcome of this test.
stdout: inactive

stdin: GET /call?item= CC(=O)C(C(C)=O)c1c(Cl)c(O)c(O)c2c(C(=O)c3ccccc3)coc12 returns the recorded outcome of this test.
stdout: active

stdin: GET /call?item= CCCCn1c(=O)cc(O)c2ccccc21 returns the recorded outcome of this test.
stdout: inactive
